# assayed target: Wee1-like protein kinase (Homo sapiens, UniProt P30291)
# Sequence (P30291 whole entry): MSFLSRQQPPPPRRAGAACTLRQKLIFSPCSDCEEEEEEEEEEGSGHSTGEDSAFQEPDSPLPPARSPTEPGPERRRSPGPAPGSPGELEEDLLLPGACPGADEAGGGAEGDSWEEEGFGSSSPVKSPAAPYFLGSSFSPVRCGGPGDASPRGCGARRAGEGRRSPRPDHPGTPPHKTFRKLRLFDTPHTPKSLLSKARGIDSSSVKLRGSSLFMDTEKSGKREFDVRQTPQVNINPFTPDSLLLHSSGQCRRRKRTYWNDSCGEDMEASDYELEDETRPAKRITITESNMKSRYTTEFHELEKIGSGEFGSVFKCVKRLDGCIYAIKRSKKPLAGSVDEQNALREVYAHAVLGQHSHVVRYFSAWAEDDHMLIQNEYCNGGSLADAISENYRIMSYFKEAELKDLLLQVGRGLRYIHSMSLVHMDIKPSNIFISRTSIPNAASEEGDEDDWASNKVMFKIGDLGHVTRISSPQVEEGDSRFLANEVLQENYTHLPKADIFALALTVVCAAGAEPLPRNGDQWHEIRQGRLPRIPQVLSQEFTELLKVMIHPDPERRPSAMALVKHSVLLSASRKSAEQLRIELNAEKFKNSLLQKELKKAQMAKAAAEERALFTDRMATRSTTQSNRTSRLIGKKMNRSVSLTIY
pIC50: −log10 of the molar value.
Each record's pIC50 is compared with low bin (below 6), mid bin (6 to below 7), high bin (7 or more) to give its class.

Previously resolved entries follow.
{"sample smiles": "O=C1NC(=O)c2c1c(-c1ccccc1Cl)cc1c2c2cc(O)c(OCCCn3cccc3)cc2n1CCO", "classification": "high bin"}
{"sample smiles": "O=C1NC(=O)c2c1ccc1c2c2cc(O)ccc2n1CCCO", "classification": "mid bin"}

# bin label for CSc1ccc(-c2cc3[nH]c4ccc(O)cc4c3c3c2C(=O)NC3=O)cc1
low bin

And the next one, CN(C)CCNC(=O)CCn1c2ccc(O)cc2c2c3c(ccc21)C(=O)NC3=O ?
mid bin

And the next one, O=C1NC(=O)c2c1c(-c1ccccc1Cl)cc1c2c2cc(O)ccc2n1CCSn1ccnn1 ?
high bin

And the next one, CC(=O)c1cccc(-c2cc3[nH]c4ccc(O)cc4c3c3c2C(=O)NC3=O)c1 ?
low bin

And the next one, O=C1NC(=O)c2c1c(-c1ccc(-c3ccccc3)cc1)cc1[nH]c3ccc(O)cc3c21 ?
low bin

And the next one, O=C1NC(=O)c2c1c(I)cc1[nH]c3ccc(O)cc3c21 ?
low bin

And the next one, O=C1NC(=O)c2c1cc(-c1ccccc1)c1[nH]c3ccc(O)cc3c21 ?
low bin

And the next one, CN(C)CCn1c2ccc(O)cc2c2c3c(ccc21)C(=O)NC3=O ?
mid bin

And the next one, Nc1cc(-c2cc3[nH]c4ccc(O)cc4c3c3c2C(=O)NC3=O)ccc1Cl ?
high bin
